Test system: glutathione (GSH)
experimentalDetails: Reactivity Profiling with Glutathione (GSH), half-life by HPLC
protocolConditions: 5 mM glutathione (GSH) in IMDM with 10% FBS
The entries below come with measured half-life at 25 μM values attached.

Example entries begin here.
CN(c1cc(C(=O)O)ccc1N(Cc1cc(C2CC2)cc(C(C)(C)C)c1)C(=O)CN(Cc1ccccc1F)S(=O)(=O)c1c(F)c(F)c(F)c(F)c1F)S(C)(=O)=O [Compound 1064] = 4.12 to 9.23 h
COc1cc(C(=O)O)ccc1N(Cc1cc(C2CC2)cc(C(C)(C)C)c1)C(=O)CN(Cc1ccc(C(F)(F)F)cn1)S(=O)(=O)c1c(F)c(F)c(F)c(F)c1F [Compound 1117] = 2.37 to 4.12 h
COc1cc(C(=O)O)ccc1N(Cc1cc(C2CC2)cc(C2CC2)c1)C(=O)CN(Cc1cnccc1C(F)(F)F)S(=O)(=O)c1c(F)c(F)c(F)c(F)c1F [Compound 1146] = 0.00167 to 2.37 h
CN(C)c1cc(C(=O)O)ccc1N(Cc1cc(C2CC2)cc(C(C)(C)C)c1)C(=O)CN(Cc1ccc(Cl)cc1)S(=O)(=O)c1c(F)c(F)c(F)c(F)c1F [Compound 1041] = 9.23 to 1670 h
O=C(O)c1ccc(N(Cc2cc(C3CC3)cc(C3CC3)c2)C(=O)CN(Cc2ccc(F)cc2C(F)(F)F)S(=O)(=O)c2c(F)c(F)c(F)c(F)c2F)c(OC2CC2)c1 [Compound 1223] = 4.12 to 9.23 h

For record COc1cc(C(=O)O)ccc1N(Cc1cc(C2CC2)cc(C(C)(C)C)c1)C(=O)CN(Cc1ncccc1F)S(=O)(=O)c1c(F)c(F)c(F)c(F)c1F [Compound 1084] the listed half-life at 25 μM is 0.00167 to 2.37 h

For record CC(C)(C)c1cc(CN(C(=O)CN(Cc2ccccc2C(F)(F)F)S(=O)(=O)c2c(F)c(F)c(F)c(F)c2F)c2ccc(C(=O)O)c(O)c2)cc(C2CC2)c1 [Compound 1048] the listed half-life at 25 μM is 9.23 to 1670 h

For record O=C(O)c1ccc(N(Cc2cc(C3CC3)cc(C3CC3)c2)C(=O)CN(Cc2cnccc2C(F)(F)F)S(=O)(=O)c2c(F)c(F)c(F)c(F)c2F)c(OC2CCCC2)c1 [Compound 1207] the listed half-life at 25 μM is 4.12 to 9.23 h

For record COc1cc(C(=O)O)ccc1N(Cc1cc(C2CC2)cc(C(C)(C)C)c1)C(=O)CN(Cc1ccnc(C(F)(F)F)c1)S(=O)(=O)c1c(F)c(F)c(F)c(F)c1F [Compound 1133] the listed half-life at 25 μM is 0.00167 to 2.37 h

For record O=C(O)c1ccc(N(Cc2cc(C3CC3)cc(N3CCCC3)c2)C(=O)CN(Cc2ccc(F)cc2Cl)S(=O)(=O)c2c(F)c(F)c(F)c(F)c2F)c(OC2CC2)c1 [Compound 1192] the listed half-life at 25 μM is 9.23 to 1670 h

For record O=C(O)c1ccc(N(Cc2cc(C3CC3)cc(N3CCCC3)c2)C(=O)CN(Cc2c(F)cc(F)cc2F)S(=O)(=O)c2c(F)c(F)c(F)c(F)c2F)c(OC2CC2)c1 [Compound 1191] the listed half-life at 25 μM is 9.23 to 1670 h
